CC50 at 7 days by entry:
experiment_description: In vitro cytotoxicity, MTT cell viability assay in HepG2 cells
Type: cell-based
measurement_context: human, Cytotoxicity CC50

1. CC(C)n1cc(NC(=O)c2ccc(F)c(C(F)(F)C(=O)N3CCC(O)C(F)(F)C3)c2)cn1 (centres unmarked): > 30 µM
2. Cc1cc(NC(=O)c2ccc(F)c(C(F)(F)C(=O)N3CCC(O)CC3)c2)cc(F)n1: 5 to 30 µM
3. O=C(Nc1ccc(F)c(Br)c1)c1ccc(F)c(C(F)(F)C(=O)N2[C@@H]3CC[C@H]2C[C@@H](O)C3)c1: 5 to 30 µM
4. Cc1cc(NC(=O)c2ccc(F)c(C(F)(F)C(=O)N3C[C@@H](C)N[C@@H](C)C3)c2)ccc1F: 5 to 30 µM
5. Cc1cc(NC(=O)c2ccc(Cl)c(C(F)(F)C(=O)N3[C@@H]4CC[C@H]3C[C@H](O)C4)c2)ccc1F: 5 to 30 µM
6. Cc1cc(NC(=O)c2ccc(Cl)c(C(F)(F)C(=O)N3CC[C@H](O)[C@H](O)C3)c2)ccc1F: > 30 µM
7. O=C(Nc1ccc(F)c(F)c1)c1ccc(F)c(C(F)(F)C(=O)NCc2ccncc2)c1: > 30 µM
8. CNS(=O)(=O)N1C[C@@H](C)N(C(=O)C(F)(F)c2cc(C(=O)Nc3ccc(F)c(C)c3)ccc2F)[C@@H](C)C1: 5 to 30 µM

Per the records, this compound ( Cc1cc(NC(=O)c2cc(C(F)(F)C(=O)NC(C)C(F)(F)F)n(C)c2)ccc1F (centres unmarked) ) has CC50 at 7 days equal to > 30 µM

Per the records, this compound ( "Cc1cc(NC(=O)c2cc(C(F)(F)C(=O)N[C@@H]3CCCC[C@H]3O)n(C)c2)ccc1F" ) has CC50 at 7 days equal to > 30 µM

Per the records, this compound ( "Cc1cc(NC(=O)c2ccc(F)c(C(F)(F)C(=O)N3CCc4sc(N)nc4C3)c2)ccc1F" ) has CC50 at 7 days equal to 5 to 30 µM
